study_target: Serine/threonine-protein kinase 26 (Homo sapiens)
assay_context: at 0.1 µM
Description: GSK_PKIS: MST4 mean inhibition at 0.1 uM [Nanosyn]
Below is a list of entries, each paired with its recorded inhibition value.
Write the value in % as a bare number.

>>> observed("Cc1ccc(-c2cc3c(NC(=O)C4CC4)ncnc3o2)cc1")
-2.57
>>> observed("O=C(O[C@H]1CN[C@H](C#Cc2cc3ncnc(Nc4ccc(OCc5cccc(F)c5)c(Cl)c4)c3s2)C1)N1CCOCC1")
-0.22
>>> observed("COc1cc(N2CCN(C(C)C)CC2)ccc1Nc1nc(Nc2cccc(F)c2C(=O)O)c2cc[nH]c2n1")
-0.64
>>> observed("Fc1ccc(Nc2nccc(-c3c(-c4ccc(C(F)(F)F)cc4)nn4ncccc34)n2)cc1F")
-0.69
>>> observed("CCCNc1cccc(-n2ncc3c(N/N=C/c4ccncc4)ncnc32)c1")
1.77

Record lookup: for Serine/threonine-protein kinase 26 (Homo sapiens), what inhibition belongs to CC1=C(C(=O)Nc2ccc3[nH]ncc3c2)C(c2ccc(F)cc2)N=C(c2ccc(C(F)(F)F)nc2)N1 (stereo not given) ? -0.24

Record lookup: for Serine/threonine-protein kinase 26 (Homo sapiens), what inhibition belongs to CS(=O)(=O)CCNCc1ccc(-c2ccc3ncnc(Nc4ccc(OCc5ccccc5)cc4)c3c2)o1 ? 0.02

Record lookup: for Serine/threonine-protein kinase 26 (Homo sapiens), what inhibition belongs to Cc1nnc(-c2cccc(-c3ccc(C(=O)NCC4CC4)cc3)c2)o1 ? -0.42

Record lookup: for Serine/threonine-protein kinase 26 (Homo sapiens), what inhibition belongs to COC(=O)Nc1nc2cc(Oc3ccc(NC(=O)Nc4ccccc4)cc3)ccc2[nH]1 ? -0.23
